Measured Ki, listed per entry.
biological target: PARP1 (Homo sapiens, UniProt P09874); construct: made in house; host or cells: insect cells; test: Steady-state kinetic analysis of the PARP1 enzymatic reaction; type: biochemical; details: read-out: Ki(2) (affinity for the enzyme complex with NAD+ substrate)
Sequence (P09874 whole entry): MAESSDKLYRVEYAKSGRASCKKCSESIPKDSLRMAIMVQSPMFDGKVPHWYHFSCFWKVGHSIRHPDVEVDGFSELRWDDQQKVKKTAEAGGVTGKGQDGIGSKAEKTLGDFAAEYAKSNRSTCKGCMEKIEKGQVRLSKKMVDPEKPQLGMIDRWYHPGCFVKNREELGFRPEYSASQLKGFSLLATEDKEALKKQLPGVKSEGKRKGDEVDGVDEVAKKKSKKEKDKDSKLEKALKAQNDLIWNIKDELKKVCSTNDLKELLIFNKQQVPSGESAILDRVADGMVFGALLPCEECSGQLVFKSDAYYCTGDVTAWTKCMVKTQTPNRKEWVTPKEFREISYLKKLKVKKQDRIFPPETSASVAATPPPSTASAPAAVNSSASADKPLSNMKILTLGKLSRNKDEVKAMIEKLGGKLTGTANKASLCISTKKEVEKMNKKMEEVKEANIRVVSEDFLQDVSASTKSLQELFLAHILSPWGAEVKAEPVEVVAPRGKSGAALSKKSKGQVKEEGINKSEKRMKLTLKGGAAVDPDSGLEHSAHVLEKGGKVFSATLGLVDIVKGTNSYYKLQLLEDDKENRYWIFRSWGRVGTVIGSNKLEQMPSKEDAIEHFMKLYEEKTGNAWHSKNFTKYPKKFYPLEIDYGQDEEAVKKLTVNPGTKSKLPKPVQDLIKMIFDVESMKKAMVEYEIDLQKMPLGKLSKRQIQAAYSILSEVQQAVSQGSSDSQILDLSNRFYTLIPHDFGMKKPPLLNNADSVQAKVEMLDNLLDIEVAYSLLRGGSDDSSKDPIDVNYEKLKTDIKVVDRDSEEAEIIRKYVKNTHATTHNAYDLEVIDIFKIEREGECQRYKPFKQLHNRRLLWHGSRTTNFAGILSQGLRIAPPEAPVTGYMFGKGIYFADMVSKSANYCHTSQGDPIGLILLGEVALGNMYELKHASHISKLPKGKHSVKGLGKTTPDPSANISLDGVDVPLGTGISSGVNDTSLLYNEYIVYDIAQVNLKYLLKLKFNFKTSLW

Compound: NC[C@@H]1CNC[C@H](n2cc(I)c(=O)[nH]c2=O)O1 [Compound 14]
Unit Descriptor: µM
Ki: 50
//
Compound: NC[C@@H]1CNC[C@H](n2cc(Br)c(=O)[nH]c2=O)O1 [Compound 13]
Unit Descriptor: µM
Ki: 130
//
Compound: Cc1cn([C@H]2CNC[C@@H](CN)O2)c(=O)[nH]c1=O [Compound 8]
Unit Descriptor: µM
Ki: 40
//
Compound: NC[C@@H]1CNC[C@H](n2cc(Cl)c(=O)[nH]c2=O)O1 [Compound 12]
Unit Descriptor: µM
Ki: 300
